- assay overview: Liver microsomal metabolism stability test, rat
- Type: in vitro ADME
- assay context: rat liver microsomes 0.5 mg/mL, compound 1 μM, NADPH/UDPGA
- Method: The purpose of this experiment was to detect the stability of the example compounds in liver microsomes of rats, dogs and humans. • Formulation of working solution of compounds: compound stock solution was added to phosphate buffer to a final concentration of 20 μM. Dilution was performed with 100 mM phosphate buffer to a final concentration of 0.625 mg/mL. […]
Here, each record is paired with measured half-life at 1 μM data.
Entry rule: numbers only, all in min.

CCCCC1=NC2(CCCC2)C(=O)N1Cc1ccc(-c2ccccc2S(=O)(=O)Nc2noc(C)c2Br)c(COCC)c1 [Example 46]	24.3

# lookup: half-life at 1 μM of [2H]C([2H])(OCC)c1cc(CN2C(=O)C3(CCCC3)N=C2CCCC)ccc1-c1ccccc1S(=O)(=O)Nc1noc(C)c1Cl [Example 49]
24

* * *

- system name: AT1 receptors (Homo sapiens)
- Sequence (P30556 1-359): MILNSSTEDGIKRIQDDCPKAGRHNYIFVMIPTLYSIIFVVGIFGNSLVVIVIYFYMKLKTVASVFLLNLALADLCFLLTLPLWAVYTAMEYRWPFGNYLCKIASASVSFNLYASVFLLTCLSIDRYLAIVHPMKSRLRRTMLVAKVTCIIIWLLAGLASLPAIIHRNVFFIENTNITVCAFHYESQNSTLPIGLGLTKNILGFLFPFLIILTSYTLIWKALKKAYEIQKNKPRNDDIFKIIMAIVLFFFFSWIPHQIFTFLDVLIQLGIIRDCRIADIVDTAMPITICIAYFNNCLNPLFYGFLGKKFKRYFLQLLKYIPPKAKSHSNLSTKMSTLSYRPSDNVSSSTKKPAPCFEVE
- assay overview: Effect on calcium current in cells stably expressing AT1 receptors (FLIPR, antagonist mode)
- assay context: HEK293-AT1 cells, Fluo-8 AM, FLIPR Tetra; read-out: IC50 values of compounds on calcium current in cells stably expressing AT1 receptors
property name: pIC50
In textbook form, pIC50 equals minus log to base ten of the concentration in mol/L.

Examples from the recorded data:
CCCCC1=NC2(CCCC2)C(=O)N1Cc1ccc(-c2ccccc2S(=O)(=O)Nc2noc(C)c2Cl)c(COC(C)C)c1	8.21
CCCCC1=NC2(CC3CC3C2)C(=O)N1Cc1ccc(-c2ccccc2S(=O)(=O)Nc2noc(C)c2Cl)c(COCC)c1 (stereo not shown)	8.36
CCCCC1=NC2(CC3CC3C2)C(=O)N1Cc1ccc(-c2ccccc2S(=O)(=O)Nc2noc(C)c2C)c(COCC)c1 (stereo not shown)	8.02
CCCCC1=NC2(CCCC2)C(=O)N1Cc1ccc(-c2ccccc2S(=O)(=O)Nc2noc(C)c2Cl)c(COCC2CC2)c1	8.28
CCCCC1=NC2(CCCC2)C(=O)N1Cc1ccc(-c2ccccc2S(=O)(=O)Nc2noc(C)c2C)c(COCC2CC2)c1	8.16
CCCCC1=NC2(CCCC2)C(=O)N1Cc1ccc(-c2ccccc2S(=O)(=O)Nc2noc(C)c2Cl)c(COC)c1	8.04

// below: pIC50 requested for another compound
Tell me the measured pIC50 of CCCCC1=NC2(CCCC2)C(=O)N1Cc1ccc(-c2ccccc2S(=O)(=O)Nc2noc(C)c2Cl)c(OCCC)c1 , please.
8.43

Recorded values, source patent US20240368123A1.
